- TARGET_OF_ASSAY: CYP2C9 (Homo sapiens)
- Sequence (P11712 whole entry): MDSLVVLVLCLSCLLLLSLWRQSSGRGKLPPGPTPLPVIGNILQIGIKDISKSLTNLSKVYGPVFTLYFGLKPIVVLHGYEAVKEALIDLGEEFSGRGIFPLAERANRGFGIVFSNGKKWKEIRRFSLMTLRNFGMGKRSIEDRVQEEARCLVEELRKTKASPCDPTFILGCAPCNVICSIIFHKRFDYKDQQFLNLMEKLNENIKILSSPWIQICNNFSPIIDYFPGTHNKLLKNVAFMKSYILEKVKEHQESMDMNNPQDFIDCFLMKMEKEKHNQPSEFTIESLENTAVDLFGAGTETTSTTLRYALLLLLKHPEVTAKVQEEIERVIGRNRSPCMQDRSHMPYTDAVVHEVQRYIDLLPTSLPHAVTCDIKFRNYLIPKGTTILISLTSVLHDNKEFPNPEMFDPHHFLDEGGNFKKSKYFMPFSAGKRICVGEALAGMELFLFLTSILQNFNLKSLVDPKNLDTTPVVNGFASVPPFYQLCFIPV
- PROTOCOL_DETAILS: Inhibition of CYP2C9 in human liver microsomes assessed as reduction in tolbutamide 4-hydroxylase activity at 10 uM preincubated for 5 mins followed by addition of NADPH-regenerating system and measured after 15 mins by LC-MS/MS analysis relative to control
- Assay type: ADME
- CONDITION_DESCRIPTION: probe tolbutamide (4-hydroxylase activity), time 20 min
MEASUREMENT_KIND: inhibition at 0.25 h, 10 µM (%)

[
  {
    "MOLECULE": "CN1CCCC1CCOc1ccc(/C(=C(/CCCO)c2ccccc2)c2ccc(O)cc2)cc1.Cl (stereo unspecified)",
    "MEASUREMENT_KIND": "inhibition at 0.25 h, 10 µM",
    "VALUE": 24.6
  },
  {
    "MOLECULE": "CN1CCC[C@H]1COc1ccc(/C(=C(/CCCO)c2ccccc2)c2ccc(Br)cc2)cc1.Cl",
    "MEASUREMENT_KIND": "inhibition at 0.25 h, 10 µM",
    "VALUE": 37.3
  },
  {
    "MOLECULE": "CN(C)CCOc1ccc(/C(=C(/CCCO)c2ccccc2)c2ccc(O)cc2)cc1",
    "MEASUREMENT_KIND": "inhibition at 0.25 h, 10 µM",
    "VALUE": 27.1
  },
  {
    "MOLECULE": "CN1CCC[C@@H]1COc1ccc(/C(=C(/CCCO)c2ccccc2)c2ccc(O)cc2)cc1.Cl",
    "MEASUREMENT_KIND": "inhibition at 0.25 h, 10 µM",
    "VALUE": 13.3
  },
  {
    "MOLECULE": "CN1CCCC1CCOc1ccc(/C(=C(/CCCO)c2ccccc2)c2ccc(Br)cc2)cc1.Cl (stereo unspecified)",
    "MEASUREMENT_KIND": "inhibition at 0.25 h, 10 µM",
    "VALUE": 3
  },
  {
    "MOLECULE": "CN1CCC[C@H]1COc1ccc(/C(=C(/CCCO)c2ccccc2)c2ccc(O)cc2)cc1.Cl",
    "MEASUREMENT_KIND": "inhibition at 0.25 h, 10 µM",
    "VALUE": 37.2
  }
]

* * *

- TARGET_OF_ASSAY: UniProt P05177
- Sequence (P05177 whole entry): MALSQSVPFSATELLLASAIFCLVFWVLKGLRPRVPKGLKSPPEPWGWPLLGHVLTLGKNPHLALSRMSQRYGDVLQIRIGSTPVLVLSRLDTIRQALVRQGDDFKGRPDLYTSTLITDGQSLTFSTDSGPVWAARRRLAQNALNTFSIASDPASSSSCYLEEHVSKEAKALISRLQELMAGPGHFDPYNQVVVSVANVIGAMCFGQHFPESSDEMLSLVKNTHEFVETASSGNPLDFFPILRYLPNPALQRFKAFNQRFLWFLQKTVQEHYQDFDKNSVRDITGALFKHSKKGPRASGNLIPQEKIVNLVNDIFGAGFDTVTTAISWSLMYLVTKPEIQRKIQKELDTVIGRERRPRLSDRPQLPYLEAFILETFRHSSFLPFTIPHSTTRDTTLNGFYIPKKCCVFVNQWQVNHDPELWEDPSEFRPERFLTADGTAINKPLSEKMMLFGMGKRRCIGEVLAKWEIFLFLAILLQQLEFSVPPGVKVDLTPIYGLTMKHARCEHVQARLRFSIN
- PROTOCOL_DETAILS: Inhibition of CYP1A2 in human liver microsomes assessed as reduction in phenacetin O-deethylase activity at 10 uM preincubated for 5 mins followed by addition of NADPH-regenerating system and measured after 15 mins by LC-MS/MS analysis relative to control
- Type: ADME
- CONDITION_DESCRIPTION: probe phenacetin (O-deethylase activity), time 20 min
This listing pairs molecules with measured inhibition at 0.25 h, 10 µM.

[
  {
    "MOLECULE": "CN1CCC[C@H]1COc1ccc(/C(=C(/CCCO)c2ccccc2)c2ccc(Br)cc2)cc1.Cl",
    "inhibition at 0.25 h, 10 µM (%)": 9.6
  },
  {
    "MOLECULE": "CN(C)CCOc1ccc(/C(=C(/CCCO)c2ccccc2)c2ccc(O)cc2)cc1",
    "inhibition at 0.25 h, 10 µM (%)": 16.4
  },
  {
    "MOLECULE": "CN1CCCC1CCOc1ccc(/C(=C(/CCCO)c2ccccc2)c2ccc(Br)cc2)cc1.Cl (stereo unspecified)",
    "inhibition at 0.25 h, 10 µM (%)": 0
  },
  {
    "MOLECULE": "CN1CCC[C@H]1COc1ccc(/C(=C(/CCCO)c2ccccc2)c2ccc(O)cc2)cc1.Cl",
    "inhibition at 0.25 h, 10 µM (%)": 0
  },
  {
    "MOLECULE": "CN1CCC[C@@H]1COc1ccc(/C(=C(/CCCO)c2ccccc2)c2ccc(O)cc2)cc1.Cl",
    "inhibition at 0.25 h, 10 µM (%)": 1.9
  },
  {
    "MOLECULE": "CN1CCCC1CCOc1ccc(/C(=C(/CCCO)c2ccccc2)c2ccc(O)cc2)cc1.Cl (stereo unspecified)",
    "inhibition at 0.25 h, 10 µM (%)": 2.1
  }
]

Where these numbers come from: ChEMBL document CHEMBL4680094
